B1: TSN (parent)
chain: AFVVYLETETLVTREAVTEILGIE

- Variants of: B1
- assay-summary: protein stability index of a GFP-peptide fusion (GPS, HEK-293T) (PSI 1-6); higher = more stable;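 further: lentivirally expressed fusions sorted by FACS into six bins by GFP to DsRed ratio, PSI derived from sequencing read proportions per bin multiplied by bin number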
- condition-set: c terminus: a fixed tail appended
I would appreciate it if you labelled entries yes (1) when protein stability index is 2 or higher, otherwise no (0).

As a guide, the following entries are already answered.
INSERT INTO measurements (sequence_data, class_label) VALUES
  ('AFVSYLETETLVTREAVTEILGIE [V4S]', 'no (0)'),
  ('AFVVYLETETLVTREAVTEILGQE [I23Q]', 'no (0)'),
  ('AFVVYLETETLVTREAVTVILGIE [E19V]', 'yes (1)');

Problem: Confirm if protein stability index reported for the variant AFVAYLETETLVTREAVTEILGIE [V4A] is 2 or above.
Solution: yes (1)

Problem: Confirm if protein stability index reported for the variant AFVVYLEYETLVTREAVTEILGIE [T8Y] is 2 or above.
Solution: no (0)

Problem: Confirm if protein stability index reported for the variant AFVVNLETETLVTREAVTEILGIE [Y5N] is 2 or above.
Solution: yes (1)

Problem: Confirm if protein stability index reported for the variant AFVVYFETETLVTREAVTEILGIE [L6F] is 2 or above.
Solution: yes (1)

Data origin, for the record: the supplement of paper PMC10567573
